Molecular target: Human TRPA1 (Homo sapiens)
Sequence (O75762 whole entry): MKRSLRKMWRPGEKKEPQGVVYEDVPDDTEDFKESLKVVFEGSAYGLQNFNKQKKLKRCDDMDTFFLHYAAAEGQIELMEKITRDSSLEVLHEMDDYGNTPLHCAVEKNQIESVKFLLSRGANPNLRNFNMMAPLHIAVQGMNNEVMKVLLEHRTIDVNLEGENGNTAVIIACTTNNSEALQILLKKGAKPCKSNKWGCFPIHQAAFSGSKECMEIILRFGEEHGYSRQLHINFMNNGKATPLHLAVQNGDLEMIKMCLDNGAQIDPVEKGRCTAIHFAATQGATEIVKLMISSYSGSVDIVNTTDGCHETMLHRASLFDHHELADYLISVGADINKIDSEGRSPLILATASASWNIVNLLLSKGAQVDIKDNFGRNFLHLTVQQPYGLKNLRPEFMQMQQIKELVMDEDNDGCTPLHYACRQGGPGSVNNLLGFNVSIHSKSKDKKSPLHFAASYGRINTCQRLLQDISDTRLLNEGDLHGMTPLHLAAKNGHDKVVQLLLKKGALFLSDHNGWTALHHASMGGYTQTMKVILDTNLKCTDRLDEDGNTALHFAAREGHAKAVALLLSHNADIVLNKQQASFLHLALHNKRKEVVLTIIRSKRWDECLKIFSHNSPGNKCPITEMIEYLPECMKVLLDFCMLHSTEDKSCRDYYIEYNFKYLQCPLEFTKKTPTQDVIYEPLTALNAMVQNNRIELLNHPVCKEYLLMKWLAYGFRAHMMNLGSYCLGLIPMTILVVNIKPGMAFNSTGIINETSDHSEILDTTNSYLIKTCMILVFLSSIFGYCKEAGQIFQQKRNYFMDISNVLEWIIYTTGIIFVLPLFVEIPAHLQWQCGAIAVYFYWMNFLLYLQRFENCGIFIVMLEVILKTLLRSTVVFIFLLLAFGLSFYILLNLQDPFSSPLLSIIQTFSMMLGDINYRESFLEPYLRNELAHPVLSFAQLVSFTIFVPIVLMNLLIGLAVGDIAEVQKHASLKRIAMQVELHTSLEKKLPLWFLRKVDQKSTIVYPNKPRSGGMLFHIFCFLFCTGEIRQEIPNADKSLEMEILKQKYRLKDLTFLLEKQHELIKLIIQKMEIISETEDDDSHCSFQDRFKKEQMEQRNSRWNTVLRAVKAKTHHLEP
Assay: Assay 1: In vitro cellular testing of TRPA1 modulation (CHO-TREx, Fluo-3 calcium fluorescence, AITC agonist)
Type: cell-based
Set-up: expressed in transfected cells; host or cells: CHO-TREx cells (Invitrogen), vector pcDNA4/TO
Details: CHO-TREx cells expressing human TRPA1; Fluo-3 fluorescence (FLIPR/Tetra); agonist 15 μM allyl isothiocyanate (AITC); 30 minute antagonist incubation
ENDPOINT_LABEL: IC50 (nM)

I. CS(=O)(=O)c1ccc(-c2cccc(CNC(=O)[C@@H]3CCCN3S(=O)(=O)c3ccc(F)cc3)c2)cc1
II. CC1CCCN1c1cc(CNC(=O)[C@@H]2CC(F)(F)CN2S(=O)(=O)c2ccc(F)cc2)cc(-c2ccc(C(F)(F)F)cc2)n1 (stereo partly drawn)
III. O=C(NCc1cc(NCc2cccnc2)nc(-c2ccc(C(F)(F)F)cc2)c1)[C@@H]1CCCN1S(=O)(=O)c1ccc(F)cc1
## Input Consider the compounds listed above. Rank them by IC50 in ascending numerical order. I would appreciate it if you listed the labels in the requested order.
## Output I, II, III
(I: 771 nM, II: 1790 nM, III: 2980 nM)

The values you see were collected from patent US8614201B2.
